- MEASUREMENT PROTOCOL: Fraction of drug unbound to plasma proteins, mouse
- Assay type: in vitro ADME
- RUN PARAMETERS: Mouse plasma proteins (Table 10); read-out: Fu (p) %
Answer each item with its documented fraction unbound.
Answers are plain numbers.

Reference set (2 entries):
CN1CCN(c2cccc3nc([C@H]4CCC[C@@H](c5ncccc5Cl)N4C)c(Cl)n23)CC1 [Compound I-115] ... 0.026
CCOCc1c([C@H]2CCC[C@@H](c3ncccc3Cl)N2C)nc2cccc(N3CCN(C)CC3)n12 [Compound I-117] ... 0.039

Request: Could you share which fraction unbound value was measured for Cc1c([C@@H]2CCC[C@H](c3ncccc3Cl)N2)nc2cccc(N3CCN(C)CC3)n12 (stereo in doubt) [Compound I-193] ?
Response: 0.047
